# TESTED_SYSTEM: HLA-A*02:01 (Homo sapiens, UniProt P04439, D140Y/D185E/D98H/E176V/E277Q/G131W/G231S/I119V/I121R/I166T/I218V/L300P/L318F/N151K/N90K/P208A/P217A/Q86G/Q94H/R138H/R169H/T345S)
# PROCEDURE_SUMMARY: MHC binding assay (UV-ligand exchange, beta2m ELISA)
# CONDITION_LABEL: binding of HLA-class I restricted peptides to HLA-A*02:01, β2m ELISA
OBSERVATION_TYPE: Peptide Exchange (MHC class I binding score, peptide exchange yield)

Below: 8 substances and their reported Peptide Exchange (MHC class I binding score, peptide exchange yield).
14 (ALLRLLPGL; listed as Homo sapiens) [compound 14] ... “+++” (≥50 = +++)
264 (TILDYINVV; listed as Homo sapiens) [compound 264] ... “+++” (≥50 = +++)
176 (VLAEQNIIPSA; listed as Homo sapiens) [compound 176] ... “+++” (≥50 = +++)
251 (LLYDNVPGA; listed as Homo sapiens) [compound 251] ... “+++” (≥50 = +++)
57 (GLSEISLRL; listed as Homo sapiens) [compound 57] ... “++++” (≥75% = ++++)
76 (GLLRIIPYL; listed as Homo sapiens) [compound 76] ... “+++” (≥50 = +++)
325 (TLENGVPCV; listed as Homo sapiens) [compound 325] ... “+++” (≥50 = +++)
79 (GLQAKIQEA; listed as Homo sapiens) [compound 79] ... “+++” (≥50 = +++)

Now take the following substance into account.
Need Peptide Exchange (MHC class I binding score, peptide exchange yield) of 383 (YLLREWVNL; listed as Homo sapiens) [compound 383] , thanks.
“++++” (≥75% = ++++)

----------
# TESTED_SYSTEM: HLA-A*02:01 (Homo sapiens, UniProt P04439, D140Y/D185E/D98H/E176V/E277Q/G131W/G231S/I119V/I121R/I166T/I218V/L300P/L318F/N151K/N90K/P208A/P217A/Q86G/Q94H/R138H/R169H/T345S)
# PROCEDURE_SUMMARY: MHC binding assay (UV-ligand exchange, beta2m ELISA)
# CONDITION_LABEL: binding of HLA-class I restricted peptides to HLA-A*02:01, β2m ELISA
OBSERVATION_TYPE: Peptide Exchange (MHC class I binding score, peptide exchange yield)

259 (RLLDEQFAVL; listed as Homo sapiens) [compound 259] ... “+++” (≥50 = +++)
275 (VLLFIEHSV; listed as Homo sapiens) [compound 275] ... “+++” (≥50 = +++)
83 (GQGEVLVYV; listed as Homo sapiens) [compound 83] ... “+++” (≥50 = +++)
308 (SLYDVSRMYV; listed as Homo sapiens) [compound 308] ... “++++” (≥75% = ++++)
61 (FVYFIVREV; listed as Homo sapiens) [compound 61] ... “+++” (≥50 = +++)

Consider the substance 25 (ATYSGLESQSV; listed as Homo sapiens) [compound 25] and give its measured Peptide Exchange (MHC class I binding score, peptide exchange yield).
“++” (≥20% = ++)

What value of Peptide Exchange (MHC class I binding score, peptide exchange yield) has been recorded for this entry: 121 (RLYEITIEV; listed as Homo sapiens) [compound 121]
“++++” (≥75% = ++++)

Entry under review: 234 (GLDDAEYAL; listed as Homo sapiens) [compound 234] . Reported Peptide Exchange (MHC class I binding score, peptide exchange yield)?
“++” (≥20% = ++)

Peptide Exchange (MHC class I binding score, peptide exchange yield) lookup needed for 266 (TLLDQLDTQL; listed as Homo sapiens) [compound 266] , thanks.
“++” (≥20% = ++)

Consider the substance 205 (GLSQANFTL; listed as Homo sapiens) [compound 205] and give its measured Peptide Exchange (MHC class I binding score, peptide exchange yield).
“+++” (≥50 = +++)

----------
# TESTED_SYSTEM: HLA-A*02:01 (Homo sapiens, UniProt P04439, D140Y/D185E/D98H/E176V/E277Q/G131W/G231S/I119V/I121R/I166T/I218V/L300P/L318F/N151K/N90K/P208A/P217A/Q86G/Q94H/R138H/R169H/T345S)
# PROCEDURE_SUMMARY: MHC binding assay (UV-ligand exchange, beta2m ELISA)
# CONDITION_LABEL: binding of HLA-class I restricted peptides to HLA-A*02:01, β2m ELISA
OBSERVATION_TYPE: Peptide Exchange (MHC class I binding score, peptide exchange yield)

26 (AVLLVLPLV; listed as Homo sapiens) [compound 26] ... “+++” (≥50 = +++)
70 (FVPDTPVGV; listed as Homo sapiens) [compound 70] ... “+++” (≥50 = +++)
236 (GLLESGRHYL; listed as Homo sapiens) [compound 236] ... “+++” (≥50 = +++)
335 (YLYQEQYFI; listed as Homo sapiens) [compound 335] ... “+++” (≥50 = +++)

----------
# TESTED_SYSTEM: HLA-A*02:01 (Homo sapiens, UniProt P04439, D140Y/D185E/D98H/E176V/E277Q/G131W/G231S/I119V/I121R/I166T/I218V/L300P/L318F/N151K/N90K/P208A/P217A/Q86G/Q94H/R138H/R169H/T345S)
# PROCEDURE_SUMMARY: MHC binding assay (UV-ligand exchange, beta2m ELISA)
# CONDITION_LABEL: binding of HLA-class I restricted peptides to HLA-A*02:01, β2m ELISA
OBSERVATION_TYPE: Peptide Exchange (MHC class I binding score, peptide exchange yield)

91 (ILDLNTYNV; listed as Homo sapiens) [compound 91] ... “+++” (≥50 = +++)
6 (ALDTLEDDMTI; listed as Homo sapiens) [compound 6] ... “+++” (≥50 = +++)
280 (YTLDSLYWSV; listed as Homo sapiens) [compound 280] ... “+++” (≥50 = +++)
202 (YVDDVFLRV; listed as Homo sapiens) [compound 202] ... “++++” (≥75% = ++++)

Item under review: 71 (GLKHDIARV; listed as Homo sapiens) [compound 71] . Reported Peptide Exchange (MHC class I binding score, peptide exchange yield)?
“+++” (≥50 = +++)

# get_value(readout='Peptide Exchange (MHC class I binding score, peptide exchange yield)', item= 310 (LLSTLHLLV; listed as Homo sapiens) [compound 310] )
“+++” (≥50 = +++)

----------
# TESTED_SYSTEM: HLA-A*02:01 (Homo sapiens, UniProt P04439, D140Y/D185E/D98H/E176V/E277Q/G131W/G231S/I119V/I121R/I166T/I218V/L300P/L318F/N151K/N90K/P208A/P217A/Q86G/Q94H/R138H/R169H/T345S)
# PROCEDURE_SUMMARY: MHC binding assay (UV-ligand exchange, beta2m ELISA)
# CONDITION_LABEL: binding of HLA-class I restricted peptides to HLA-A*02:01, β2m ELISA
OBSERVATION_TYPE: Peptide Exchange (MHC class I binding score, peptide exchange yield)

Solved entries (count: 7):
271 (VIRNIVEAA; listed as Homo sapiens) [compound 271] ... “++” (≥20% = ++)
277 (VMILKLPFL; listed as Homo sapiens) [compound 277] ... “++” (≥20% = ++)
166 (TLDPNQVSL; listed as Homo sapiens) [compound 166] ... “++” (≥20% = ++)
203 (ALLSSQLAL; listed as Homo sapiens) [compound 203] ... “+++” (≥50 = +++)
64 (KLLESVASA; listed as Homo sapiens) [compound 64] ... “+++” (≥50 = +++)
56 (FVFEAPYTL; listed as Homo sapiens) [compound 56] ... “+++” (≥50 = +++)
165 (TLDDDLDTV; listed as Homo sapiens) [compound 165] ... “++” (≥20% = ++)

Now turn to the next substance.
# input substance: 220 (ALPEILFAKV; listed as Homo sapiens) [compound 220] ; wanted: its Peptide Exchange (MHC class I binding score, peptide exchange yield)
“+++” (≥50 = +++)

----------
# TESTED_SYSTEM: HLA-A*02:01 (Homo sapiens, UniProt P04439, D140Y/D185E/D98H/E176V/E277Q/G131W/G231S/I119V/I121R/I166T/I218V/L300P/L318F/N151K/N90K/P208A/P217A/Q86G/Q94H/R138H/R169H/T345S)
# PROCEDURE_SUMMARY: MHC binding assay (UV-ligand exchange, beta2m ELISA)
# CONDITION_LABEL: binding of HLA-class I restricted peptides to HLA-A*02:01, β2m ELISA
OBSERVATION_TYPE: Peptide Exchange (MHC class I binding score, peptide exchange yield)

172 (TLYDMLASI; listed as Homo sapiens) [compound 172] ... “+++” (≥50 = +++)
206 (HMQDVRVLL; listed as Homo sapiens) [compound 206] ... “+++” (≥50 = +++)
329 (VLMDGSVKL; listed as Homo sapiens) [compound 329] ... “++++” (≥75% = ++++)
63 (SLAHVAGCEL; listed as Homo sapiens) [compound 63] ... “+++” (≥50 = +++)
216 (WLAGDVPAA; listed as Homo sapiens) [compound 216] ... “+++” (≥50 = +++)

// returns reported Peptide Exchange (MHC class I binding score, peptide exchange yield) for input 49 (FLTDLFAQL; listed as Homo sapiens) [compound 49]
“++++” (≥75% = ++++)

Please give the measured Peptide Exchange (MHC class I binding score, peptide exchange yield) for this substance: 297 (FLVEPQEDTRL; listed as Homo sapiens) [compound 297]
“+++” (≥50 = +++)

Give its Peptide Exchange (MHC class I binding score, peptide exchange yield) value. Item: 105 (KLMNDIADI; listed as Homo sapiens) [compound 105]
“++” (≥20% = ++)

Consider the substance shown here: 46 (YIIDSAQAV; listed as Homo sapiens) [compound 46] What is its recorded Peptide Exchange (MHC class I binding score, peptide exchange yield)?
“+++” (≥50 = +++)

Tell me the measured Peptide Exchange (MHC class I binding score, peptide exchange yield) of 240 (ILARDILEI; listed as Homo sapiens) [compound 240] , please.
“+++” (≥50 = +++)

Suppose we examine the substance 125 (LLLEIGEVGKLFV; listed as Homo sapiens) [compound 125] ; what Peptide Exchange (MHC class I binding score, peptide exchange yield) value has been reported?
“+++” (≥50 = +++)

What value of Peptide Exchange (MHC class I binding score, peptide exchange yield) has been reported for the following substance? 269 (TLTDEQFLV; listed as Homo sapiens) [compound 269]
“++” (≥20% = ++)

Endpoint output: Peptide Exchange (MHC class I binding score, peptide exchange yield) of 39 (FLDALLTDV; listed as Homo sapiens) [compound 39] . Value?
“+++” (≥50 = +++)
